test-system: binding between IKKβ and full-length Regnase-1 (FL_Reg1) (Homo sapiens)
Construct: made in house; host or cells: Expi293 cells
Sequence (Q5D1E8 whole entry): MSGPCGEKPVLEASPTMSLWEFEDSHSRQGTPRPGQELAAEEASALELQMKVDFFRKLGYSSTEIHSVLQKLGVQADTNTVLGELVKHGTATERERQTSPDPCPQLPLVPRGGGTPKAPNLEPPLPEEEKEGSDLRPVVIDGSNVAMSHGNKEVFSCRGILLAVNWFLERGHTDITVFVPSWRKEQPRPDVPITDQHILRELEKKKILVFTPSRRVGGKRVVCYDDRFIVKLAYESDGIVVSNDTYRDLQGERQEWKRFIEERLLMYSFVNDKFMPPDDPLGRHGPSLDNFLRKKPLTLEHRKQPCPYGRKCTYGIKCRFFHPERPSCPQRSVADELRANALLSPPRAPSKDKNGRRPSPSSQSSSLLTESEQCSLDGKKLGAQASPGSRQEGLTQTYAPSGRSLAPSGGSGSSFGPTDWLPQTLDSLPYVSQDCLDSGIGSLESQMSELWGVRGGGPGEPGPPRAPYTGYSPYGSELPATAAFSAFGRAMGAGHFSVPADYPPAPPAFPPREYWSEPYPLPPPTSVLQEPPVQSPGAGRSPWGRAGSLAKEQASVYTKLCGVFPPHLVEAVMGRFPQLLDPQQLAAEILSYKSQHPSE
assay-explanation: Inhibition of kinase-Regnase-1 binding by the compounds (AlphaScreen), IKKβ
condition-context: Table 14; binding between IKKβ and Regnase-1; read-out: Binding inhibition FL_Reg1, 50% inhibition concentration (IKKβ)
Residues, ends and D or L forms follow the SMILES beside them.
quantity: IC50 (µM)
Give the number; µM is assumed, so skip it.

For the molecule CC(C)[C@@H]1NC(=O)[C@H](Cc2c[nH]c3ccccc23)NC(=O)[C@H](CCCCN)NC(=O)[C@H](Cc2c[nH]c3ccccc23)NC(=O)[C@H](CCC(N)=O)NC(=O)[C@H](CCCNC(=N)N)NC(=O)[C@H](Cc2ccccc2)NC(=O)[C@H](CCCNC(=N)N)NC(=O)[C@H](C)N(C)C(=O)C[C@@H](C(=O)N2CCCC2)NC(=O)[C@@H]2CCCN2C(=O)[C@H](Cc2ccc(O)cc2)NC1=O [PP13] (HELM PEPTIDE1{[meA].R.F.R.Q.W.K.W.V.Y.P.D.[C1CCN([*:1])C1]}$PEPTIDE1,PEPTIDE1,1:R1-12:R3$$$V2.0) , what IC50 is on record? 16.9

For the molecule CC[C@H](C)[C@@H]1NC(=O)[C@H](CCCCN)NC(=O)[C@H](Cc2ccc(O)cc2)NC(=O)[C@H](Cc2c[nH]c3ccccc23)NC(=O)[C@H](CO)NC(=O)[C@H](CC(N)=O)NC(=O)[C@H](C)N(C)C(=O)C[C@@H](C(=O)N2CCCC2)NC(=O)[C@H](CC(C)C)NC(=O)CNC(=O)[C@H](Cc2c[nH]c3ccccc23)NC1=O [PP21] (HELM PEPTIDE1{[meA].N.S.W.Y.K.I.W.G.L.D.[C1CCN([*:1])C1]}$PEPTIDE1,PEPTIDE1,1:R1-11:R3$$$V2.0) , what IC50 is on record? 20.7

For the molecule CC[C@H](C)[C@@H]1NC(=O)[C@H](CC(N)=O)NC(=O)[C@H]([C@@H](C)CC)NC(=O)[C@H](Cc2ccc(O)cc2)NC(=O)[C@H](Cc2c[nH]c3ccccc23)NC(=O)[C@H](CO)NC(=O)[C@H](CC(N)=O)NC(=O)[C@H](C)N(C)C(=O)C[C@@H](C(=O)N2CCCC2)NC(=O)[C@H](Cc2c[nH]cn2)NC(=O)CNC(=O)[C@H](Cc2c[nH]c3ccccc23)NC1=O [PP15] (HELM PEPTIDE1{[meA].N.S.W.Y.I.N.I.W.G.H.D.[C1CCN([*:1])C1]}$PEPTIDE1,PEPTIDE1,1:R1-12:R3$$$V2.0) , what IC50 is on record? 33.7
